Hey, just so you know, these numbers are from patent US20230118795A1.

- System: NCI-H358 (KRAS^G12C mutation) cell
- METHOD_DESCRIPTION: Cell assay of antiproliferative activity against NCI-H358 cell (Celltiter-Glo, 5 days)
- Format: cell-based
- REPORTED_CONDITIONS: Homo sapiens, NCI-H358, 120 h, 5 days incubation
Answer each item with its documented pIC50.
Here pIC50 is given on a logarithmic scale as minus log10 of the concentration in mol/L.

Which pIC50 is reported for this compound? C=CC(=O)N1CCN(c2nc(=O)n(-c3c(C(C)C)ccnc3S(C)(=O)=O)c3nc(-c4c(O)cccc4Cl)c(F)cc23)[C@@H](C)C1
7.52

// repeat for C=CC(=O)N1CCN(c2nc(=O)n(-c3c(C)cccc3S(=O)(=O)C3CC3)c3nc(-c4c(O)cccc4F)c(F)cc23)[C@@H](C)C1 and report
6.62

// repeat for C=CC(=O)N1CCN(c2nc(=O)n(-c3c(C(C)C)cccc3S(C)(=O)=O)c3nc(-c4c(O)cccc4F)c(F)cc23)[C@@H](C)C1 and report
8.00
